Data credit: patent US20240398942A1

# TARGET_DESC: T1, human CD40-Fc protein (human, biotinylated (sites not given) in the capture ELISA and the benchmark blocking ELISA; not biotinylated in the ligand blocking ELISA)
# T1 construct: also called biotinylated human CD40-Fc
# EXPERIMENTAL_PROTOCOL: competitive ELISA: BM2 (selicrelumab) coated as competitor, antibody titrated and pre-mixed with biotinylated human CD40-Fc 0.23 nM, streptavidin-HRP, OD(450-630)
# Protocol: The ability of the anti-CD40 antibody of the present application to block the binding of the benchmark to human CD40 was determined by competitive ELISA. […] The absorbance was read on a microplate reader using the dual wavelength mode (TMB detection wavelength: 450 nm, reference wavelength: 630 nm). […] Data were analyzed using Graphpad Prism software, and IC₅₀ values were obtained.
Entries whose IC50 is below 0.2 nM take 1; entries at or above 0.2 nM take -1.

1) BM1 (dacetuzumab) (antibody, human IgG1, kappa, V domains shown, Benchmark antibody, prepared in-house; also called CD40-BM1; benchmark) VH: EVQLVESGGGLVQPGGSLRLSCAASGYSFTGYYIHWVRQAPGKGLEWVARVIPNAGGTSYNQKFKGRFTLSVDNSKNTAYLQMNSLRAEDTAVYYCAREGIYWWGQGTLVTVSS VL: DIQMTQSPSSLSASVGDRVTITCRSSQSLVHSNGNTFLHWYQQKPGKAPKLLIYTVSNRFSGVPSRFSGSGSGTDFTLTISSLQPEDFATYFCSQTTHVPWTFGQGTKVEIKR | 1
2) chimeric antibody C1H1 (antibody, human IgG1, kappa, V domains shown, also called Chimeric C1H1) VH: EVKLVESGGGLVKPGASLKLSCAASGFTFSNYGISWVRQTSDKRLEWVASISSGGDNTYYPDNVKGRFTISRENAKNTLYLQMSSLKSEDTALYYCARAGEKAMDYWGQGTSVTVSS VL: DIVLTQSPVTLSVTPGDSVSLSCRASQTINNNLHWYQQKSHESPRLLIKYASQSISGIPSRFSGSGSGTDFTLSINSVETEDFGIYFCQQFSSWPLTFGAGTKLELKR | 1
3) humanized antibody huC1H1-V1 (antibody, human IgG2, kappa, V domains shown, Human IgG2 / kappa) VH: EVQLVESGGGLVKPGGSLRLSCAASGFTFSNYGISWVRQAPGKGLEWVASISSGGDNTYYPDNVKGRFTISRDNAKNSLYLQMNSLRAEDTAVYYCARAGEKAMDYWGQGTLVTVSS VL: EIVLTQSPATLSLSPGERATLSCRASQTINNNLHWYQQKPGQAPRLLIKYASQSISGIPARFSGSGSGTDFTLTISSLEPEDFAVYFCQQFSSWPLTFGGGTKVEIKR | -1
4) mouse anti-CD40 monoclonal antibody C1H1 (antibody, V domains shown, Parent mouse antibody from a hybridoma; the mouse constant regions are not; also called Mouse C1H1) VH: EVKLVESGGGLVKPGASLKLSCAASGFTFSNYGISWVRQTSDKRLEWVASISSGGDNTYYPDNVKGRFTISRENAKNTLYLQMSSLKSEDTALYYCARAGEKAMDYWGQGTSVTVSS VL: DIVLTQSPVTLSVTPGDSVSLSCRASQTINNNLHWYQQKSHESPRLLIKYASQSISGIPSRFSGSGSGTDFTLSINSVETEDFGIYFCQQFSSWPLTFGAGTKLELK | 1
5) humanized antibody huC1H1-V2 (antibody, human IgG2, kappa, V domains shown, Human IgG2 / kappa) VH: EVQLVESGGGLVKPGGSLRLSCAASGFTFSNYGISWVRQAPGKGLEWVSSISSGGDNTYYPDNVKGRFTISRDNAKNSLYLQMNSLRAEDTAVYYCARAGEKAMDYWGQGTLVTVSS VL: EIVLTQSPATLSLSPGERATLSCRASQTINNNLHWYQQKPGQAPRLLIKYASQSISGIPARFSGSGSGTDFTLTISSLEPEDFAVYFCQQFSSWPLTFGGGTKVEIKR | -1
